Target: HDAC6 (Homo sapiens)
Sequence (Q9UBN7 1-1215): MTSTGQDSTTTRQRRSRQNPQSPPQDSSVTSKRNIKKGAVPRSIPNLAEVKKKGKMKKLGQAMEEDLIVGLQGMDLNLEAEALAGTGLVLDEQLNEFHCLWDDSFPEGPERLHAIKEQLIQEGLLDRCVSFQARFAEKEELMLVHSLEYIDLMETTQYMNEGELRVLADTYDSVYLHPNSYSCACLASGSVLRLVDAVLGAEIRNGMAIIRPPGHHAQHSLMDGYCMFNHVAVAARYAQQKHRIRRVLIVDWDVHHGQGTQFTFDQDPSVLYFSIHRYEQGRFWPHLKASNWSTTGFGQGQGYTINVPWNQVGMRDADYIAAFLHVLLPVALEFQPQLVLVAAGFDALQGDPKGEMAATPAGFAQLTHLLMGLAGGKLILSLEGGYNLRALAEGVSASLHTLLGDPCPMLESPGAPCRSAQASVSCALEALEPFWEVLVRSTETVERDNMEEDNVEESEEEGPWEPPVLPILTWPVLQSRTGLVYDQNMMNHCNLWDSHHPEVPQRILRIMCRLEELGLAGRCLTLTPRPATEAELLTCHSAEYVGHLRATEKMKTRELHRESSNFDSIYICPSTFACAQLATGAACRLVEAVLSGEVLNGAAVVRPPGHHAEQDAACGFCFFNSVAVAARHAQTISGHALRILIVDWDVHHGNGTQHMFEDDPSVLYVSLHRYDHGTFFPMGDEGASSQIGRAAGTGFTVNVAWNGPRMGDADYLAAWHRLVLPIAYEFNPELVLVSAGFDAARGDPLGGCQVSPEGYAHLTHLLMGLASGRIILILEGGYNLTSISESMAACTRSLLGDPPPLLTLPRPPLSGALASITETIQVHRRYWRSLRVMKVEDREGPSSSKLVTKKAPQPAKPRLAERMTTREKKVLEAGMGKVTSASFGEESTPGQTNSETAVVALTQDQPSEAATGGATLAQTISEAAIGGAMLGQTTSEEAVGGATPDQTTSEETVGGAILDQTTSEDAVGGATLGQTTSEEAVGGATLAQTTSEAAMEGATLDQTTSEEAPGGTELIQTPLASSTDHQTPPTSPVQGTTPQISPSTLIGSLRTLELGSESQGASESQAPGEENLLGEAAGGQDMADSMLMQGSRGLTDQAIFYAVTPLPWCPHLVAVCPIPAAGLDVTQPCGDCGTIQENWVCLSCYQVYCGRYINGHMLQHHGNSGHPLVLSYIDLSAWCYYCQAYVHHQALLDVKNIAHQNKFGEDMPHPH
Experiment: Human HDAC enzyme inhibitor Fluor-de-Lys assay, HDAC6
Assay type: biochemical
IC50 strictly under 2 µM means true (1); at 2 µM or over means false (0).

// known answers, use as guide
{"Molecule": "CCC(=O)CCCCC[C@H](NC(=O)C1CC12CCN(C)C(C)(C)C2)c1ncc(-c2ccc3nc(C)ccc3c2)[nH]1 (single isomer, unassigned) [Compound 131]", "Class name": "false (0)"}
{"Molecule": "CN1CCC2(CC1)C[C@@H]2C(=O)N[C@@H](CCCCCC(=O)CC1CC1)c1ncc(-c2ccc(F)cc2)[nH]1", "Class name": "false (0)"}
{"Molecule": "CCC(=O)CCCCC[C@H](NC(=O)C1CC12CC1CCC(C2)N1C)c1ncc(-c2ccc3ncccc3c2)[nH]1 (single isomer, unassigned)", "Class name": "true (1)"}
{"Molecule": "CCC(=O)CCCCC[C@H](NC(=O)[C@H]1CC12CCN(CC)CC2)c1ncc(-c2cc3nn(C)cc3cc2OC)[nH]1", "Class name": "true (1)"}

Does this molecule meet the criterion IC50 < 2 µM? CCC(=O)CCCCC[C@H](NC(=O)[C@H]1CC12CCN(C(C)C)CC2)c1ncc(-c2ccc3nc(C4CC4)ccc3c2)[nH]1
false (0)

Does this molecule meet the criterion IC50 < 2 µM? CCC(=O)CCCCC[C@H](NC(=O)[C@H]1CC12CCN(C)CC2)c1ncc(-c2cnc3cccnc3c2)[nH]1
true (1)

Does this molecule meet the criterion IC50 < 2 µM? CCC(=O)CCCCC[C@H](NC(=O)C1CC12CCN(C)C(C)(C)C2)c1ncc(-c2ccc3nc(C)ccc3c2)[nH]1 (single isomer, unassigned) [Compound 133]
true (1)

###

Could you please report measured IC50 for the items listed next?
Target: HDAC6 (Homo sapiens)
Test: Human HDAC enzyme inhibitor Fluor-de-Lys assay, HDAC6
Type: biochemical
Settings: HDAC6, Fluor-de-Lys assay
Give bare numbers, in nM.

Some solved cases for reference:
{"Compound": "CCC(=O)CCCCC[C@H](NC(=O)[C@H]1CC[C@]2(CC1)OC(=O)c1ccncc12)c1ncc(-c2ccccc2)[nH]1", "Tested system": "HDAC6 (Homo sapiens)", "Recorded metric": "IC50", "Measured result": 10800}
{"Compound": "CCC(=O)CCCCC[C@H](NC(=O)C1CC12CCN(CC)CC2)c1nc(-c2ccc(F)cc2)[nH]c1-c1cccs1 (stereo partly drawn)", "Tested system": "HDAC6 (Homo sapiens)", "Recorded metric": "IC50", "Measured result": 33900}
{"Compound": "CCC(=O)CCCCC[C@H](NC(=O)[C@H]1CC12CN(C)C2)c1ncc(-c2cc3ccc(C)nc3cc2OC)o1 (single isomer, unassigned)", "Tested system": "HDAC6 (Homo sapiens)", "Recorded metric": "IC50", "Measured result": 396}

Memo: CCC(=O)CCCCC[C@H](NC(=O)[C@H]1CC[C@]2(CC1)OC(=O)c1ncccc12)c1nnc(-c2cc3ccccc3nc2OC)o1 , reported IC50: 2110

###

Target: HDAC6 (Homo sapiens, UniProt Q9UBN7)
Experiment: Human HDAC enzyme inhibitor Fluor-de-Lys assay, HDAC6
Type: biochemical
Conditions: HDAC6, Fluor-de-Lys assay
pIC50: −log10 of the molar value.
Threshold rule: pIC50 greater than or equal to 6 is y; below that, n.

// known answers, use as guide
{"Compound": "CCC(=O)CCCCC[C@H](NC(=O)[C@H]1CC12CN(C)C2)c1ncc(-c2cc3ccccc3nc2OC)[nH]1", "Class name": "y"}
{"Compound": "CCC(=O)CCCCC[C@H](NC(=O)[C@@H]1CC12CCN(C(N)=O)CC2)c1ncc(-c2cc3ccccc3nc2OC)[nH]1 (single isomer, unassigned)", "Class name": "y"}
{"Compound": "CCC(=O)CCCCCC(NC(=O)C1CCC2(CC1)OC(=O)c1ccncc12)c1nnc(-c2cc3ccccc3nc2OC)o1 (centres unmarked)", "Class name": "n"}
{"Compound": "CCC(=O)CCCCC[C@H](NC(=O)CCN1C(=O)C(CC)=NC12CCOCC2)c1ncc(-c2ccccc2)[nH]1", "Class name": "n"}
{"Compound": "CCC(=O)CCCCC[C@H](NC(=O)[C@@H]1CC12CCN(CC)CC2)c1ncc(-c2cc3ccccc3[nH]c2=O)[nH]1", "Class name": "n"}

Entry CCC(=O)CCCCC[C@H](NC(=O)[C@H]1CC12CCN(CC)CC2)c1ncc(-c2cnc3cc(C(F)(F)F)ccc3c2)[nH]1 : is its pIC50 no less than 6?
n

Entry CCC(=O)CCCCCC(NC(=O)C1CC12CCN(CC)CC2)c1nc(-c2ccc(F)cc2)[nH]c1-c1ccnn1C (centres unmarked) : is its pIC50 no less than 6?
n

###

Molecular target: Recombinant human HDAC2 (Homo sapiens)
Construct: Full length human HDAC2-FLAG was expressed in baculovirus infected Sf9 cells; FLAG (C); made in house; host or cells: Sf9 (baculovirus)
Sequence (Q92769 whole entry): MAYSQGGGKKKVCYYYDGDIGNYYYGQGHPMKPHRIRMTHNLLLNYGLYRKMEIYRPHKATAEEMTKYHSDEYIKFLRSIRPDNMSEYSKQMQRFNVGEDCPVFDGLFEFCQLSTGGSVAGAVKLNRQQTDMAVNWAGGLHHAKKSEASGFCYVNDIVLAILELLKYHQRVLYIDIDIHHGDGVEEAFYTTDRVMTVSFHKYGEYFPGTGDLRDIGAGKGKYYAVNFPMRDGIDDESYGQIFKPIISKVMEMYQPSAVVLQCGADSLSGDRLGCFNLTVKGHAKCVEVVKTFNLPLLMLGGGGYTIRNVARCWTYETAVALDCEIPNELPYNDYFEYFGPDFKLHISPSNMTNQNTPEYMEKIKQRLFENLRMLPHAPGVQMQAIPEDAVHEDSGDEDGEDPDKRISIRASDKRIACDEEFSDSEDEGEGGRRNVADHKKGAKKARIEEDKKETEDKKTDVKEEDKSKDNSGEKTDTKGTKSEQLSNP
Test: Human HDAC enzyme inhibitor Fluor-de-Lys assay, HDAC2
Format: biochemical
Conditions: recombinant human HDAC2, Fluor-de-Lys assay
Could you please report measured IC50 for the items listed next?

Some solved cases for reference:
{"Compound": "CCC(=O)CCCCC[C@H](NC(=O)[C@H]1CC[C@@]2(CC1)OC(=O)c1ccncc12)c1ncc(-c2ccccc2)[nH]1", "Tested system": "Recombinant human HDAC2 (Homo sapiens)", "IC50": "416 nM"}
{"Compound": "CCC(=O)CCCCC[C@H](NC(=O)[C@H]1CC[C@]2(CC1)OC(=O)c1cccnc12)c1nnc(-c2cc3ccccc3nc2OC)o1", "Tested system": "Recombinant human HDAC2 (Homo sapiens)", "IC50": "149 nM"}
{"Compound": "CCC(=O)CCCCC[C@H](NC(=O)[C@H]1CC12CN(C)C2)c1ncc(-c2cc3ccc(C)nc3cc2OC)o1 (single isomer, unassigned)", "Tested system": "Recombinant human HDAC2 (Homo sapiens)", "IC50": "2.7 nM"}
{"Compound": "CCC(=O)CCCCC[C@H](NC(=O)C1NC(=O)CC12CN(C)C2)c1nnc(-c2cc3ccccc3nc2OC)o1 (stereo partly drawn)", "Tested system": "Recombinant human HDAC2 (Homo sapiens)", "IC50": "19.3 nM"}

Give measured IC50 for every item shown.
1. CCC(=O)CCCCC[C@H](NC(=O)[C@H]1CC12CCN(CC1CC1)CC2)c1ncc(-c2cc3ccc(C)nc3cc2F)[nH]1
2. CCC(=O)CCCCC[C@H](NC(=O)[C@H]1CC12CCN(C)CC2)c1ncc(-c2ccccc2F)[nH]1
3. CCC(=O)CCCCC[C@H](NC(=O)C1CC12CCOCC2)c1ncc(-c2cc3ccc(C)nc3cc2OC)o1 (single isomer, unassigned) [Compound 410]
4. CCC(=O)CCCCCC(NC(=O)C1CCC2(CC1)OC(=O)c1ncccc12)c1nnc(-c2cc3ccccc3nc2OC)o1 (stereo not drawn)
5. CCC(=O)CCCCC[C@H](NC(=O)C1NC(=O)CC12CN(C(=O)OC(C)(C)C)C2)c1nnc(-c2cc3ccccc3nc2OC)o1 (stereo partly drawn)
6. CCC(=O)CCCCC[C@H](NC(=O)C1NC(=O)CC12CN(C)C2)c1ncc(-c2cc3ccccc3nc2OC)[nH]1 (stereo partly drawn)
7. CCOc1ncc(-c2cnc([C@H](CCCCCC(=O)CC)NC(=O)[C@H]3CC34CCN(C)CC4)[nH]2)cn1

0.6 nM
73.5 nM
143 nM
208 nM
121 nM
5 nM
372 nM

Give measured IC50 for every item shown.
1. CCC(=O)CCCCC[C@H](NC(=O)[C@H]1CC12CCN(C)CC2)c1nnc(-c2cc3ccccc3nc2OC)o1
2. CCC(=O)CCCCC[C@H](NC(=O)C1CC12CCN(CC)CC2)c1nc(-c2ccc(F)cc2)[nH]c1-c1ccn(C)c1 (stereo partly drawn)
3. CCC(=O)CCCCC[C@H](NC(=O)C1=NOC2(CCN(CC3CC3)CC2)C1)c1ncc(-c2cc3ccc(C)nc3cc2F)[nH]1
4. CCC(=O)CCCCCC(NC(=O)C1CCC2(CC1)OC(=O)c1ccncc12)c1nnc(-c2cc3ccccc3nc2OC)o1 (stereo not drawn)

1. 58.2 nM
2. 12.6 nM
3. 14.1 nM
4. 234 nM
